Target: T1, human SEMG2 full-length protein (human, UniProt Q02383 24-582, limits assumed)
T1 construct: also called SEMG2 protein; semenogelin 2
T1 sequence: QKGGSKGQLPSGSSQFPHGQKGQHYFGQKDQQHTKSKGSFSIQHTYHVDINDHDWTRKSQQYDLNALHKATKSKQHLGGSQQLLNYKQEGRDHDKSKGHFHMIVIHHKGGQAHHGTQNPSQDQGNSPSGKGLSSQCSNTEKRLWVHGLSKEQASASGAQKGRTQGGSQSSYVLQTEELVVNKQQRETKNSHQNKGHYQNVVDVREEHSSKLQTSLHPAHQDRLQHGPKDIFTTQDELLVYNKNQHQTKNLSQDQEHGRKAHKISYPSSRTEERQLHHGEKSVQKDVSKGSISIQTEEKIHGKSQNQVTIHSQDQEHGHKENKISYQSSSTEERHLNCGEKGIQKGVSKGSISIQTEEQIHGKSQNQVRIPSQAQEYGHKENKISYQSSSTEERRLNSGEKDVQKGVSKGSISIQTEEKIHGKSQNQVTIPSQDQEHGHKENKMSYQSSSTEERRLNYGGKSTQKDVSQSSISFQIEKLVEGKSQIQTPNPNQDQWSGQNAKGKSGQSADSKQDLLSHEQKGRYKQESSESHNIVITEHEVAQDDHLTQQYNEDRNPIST
Assay: ELISA, immobilized antigen SEMG2 (1-582)
TEST READOUT: A450 absorbance
The response must contain the number and no unit.

Please list A450 absorbance recorded for the binder MM14 (antibody, IgG2b, V domains shown) VH: QVQLKESGPGLVAPSQSLSITCTVSGFSLTSYAVSWVRQPPGKGLEWLGIIWGDGSTNYHSALISRLSISKDNSKSQVFLKLNSLQTDDTATYYCAKQERFSDGYYDGFAYWGQGTLVTVSA VL: QIVLTQSPAIMSASPGEKVTITCSASSSVSYMHWFQQKPGTSPKLWIYSTSNLASGVPARFSGSGSGTSYSLTISRMEAEDAATYYCQQRSSYPFTFGSGTKLEIKR
1.12
